Target: MAPK8 (human)
Experiment: radiometric filter-binding kinase assay, Kinase HotSpot
Conditions: compound 0.5 µM; ATP 10 µM
measureName: residual activity (%)

>>> valueobserved("Oc1cccc(-c2nc(N3CCOCC3)c3oc4ncccc4c3n2)c1")
89.8
>>> valueobserved("CCN(CC)CCNC(=O)c1c(C)[nH]c(/C=C2\\C(=O)Nc3ccc(Cl)cc32)c1C")
97.2
>>> valueobserved("Nc1ncnc2c1c(-c1ccc(Oc3ccccc3)cc1)cn2C1CCCC1")
117
>>> valueobserved("CCN(CC)CCNC(=O)c1c(C)[nH]c(/C=C2\\C(=O)Nc3ccc(F)cc32)c1C")
91.8
>>> valueobserved("O=C1NC(=O)c2c1c1c3ccccc3n3c1c1c2c2ccccc2n1C1CCC3O1")
98.5
>>> valueobserved("CC#CC(=O)Nc1cc2c(Nc3ccc(F)c(Cl)c3)ncnc2cn1")
98.9
>>> valueobserved("N#C/C(=C(/N)Sc1ccc(N)cc1)c1ccccc1C(F)(F)F")
112
>>> valueobserved("CC(=O)c1ccc(N2CCOCC2)cc1O")
96.8
>>> valueobserved("Cc1[nH]c(/C=C2\\C(=O)Nc3ccc(S(=O)(=O)N(C)c4cccc(Cl)c4)cc32)c(C)c1C(=O)N1CCN(C)CC1")
86.9
>>> valueobserved("CC[n+]1c(/C=C/N(C)c2ccccc2)n(-c2ccccc2)c2ccc(-c3nc4ccccc4s3)cc21")
96.3
>>> valueobserved("O=C1NC(=O)/C(=C/c2ccc3c(c2)OC(F)(F)O3)S1")
95.1
